These data points were gathered from patent US20170101431A1.

Measured pEC50 values are reported for all entries that follow.
Tested on: AML samples (live leukemic cells from bone marrow or peripheral blood of patients)
test: Ex-vivo effect on AML patient samples (depletion of live leukemic cells, flow cytometry, Annexin V)
Assay type: cell-based, human
study-conditions: Homo sapiens, 72 h, plates incubated for 72 hours
pEC50: −log10 of the molar value.
result-type: pEC50

1. CCOC(=O)[C@H](CC(C)C)NP(=O)(OCC(=O)OC)OC[C@H]1O[C@@H](n2ccc(N)nc2=O)C(O)C1O (single isomer, unassigned) [drawing 664]	5.00 to 6.00
2. CC(C)(CO)C(=O)SCCOP(=O)(NCc1ccccc1)OC[C@H]1O[C@@H](n2ccc(N)nc2=O)C(O)C1O (stereo partly drawn)	4.70 to 5.00
3. CC(C)(CO)C(=O)SCCOP(=O)(NCc1ccccc1)OC[C@H]1O[C@@H](n2cnc3c(N)nc(Cl)nc32)C(F)C1O (single isomer, unassigned) [drawing 657]	≥ 6.00
4. Nc1ccn([C@@H]2O[C@H](COP(=O)(O)NCc3ccccc3)C(O)C2O)c(=O)n1 (stereo partly drawn)	4.70 to 5.00
5. CCCCCCCC/C=C/CCCCCCCC(=O)Nc1ccn([C@@H]2O[C@H](COP(=O)(N[C@@H](CC(C)C)C(=O)OC)N[C@@H](CC(C)C)C(=O)OC)C(O)C2O)c(=O)n1 (stereo partly drawn)	4.70 to 5.00
6. CC(C)(O)C(=O)SCCOP(=O)(OCCSC(=O)C(C)(C)CO)OC[C@H]1O[C@@H](N2C=NC3C(N)=NC(Cl)=NC32)[C@@H](F)[C@@H]1O (stereo partly drawn)	5.00 to 6.00

* * *

Tested on: CCRF-CEM-cytarabine resistant
test: In vitro inhibition, CellTiter-Glo (CTG) assay, CCRF-CEM-cytarabine resistant
Type: cell-based
study-conditions: 72 hr exposure
result-type: IC50

1) C[C@H](NP1(=O)OC[C@H]2O[C@@H](n3cnc4c(N)nc(Cl)nc43)[C@@H](F)[C@@H]2O1)C(=O)OCc1ccccc1 (single isomer, unassigned) [Compound 26b]	1 to 10 µM
2) CCOC(=O)[C@H](C)NP1(=O)OC[C@H]2O[C@@H](n3cnc4c(N)nc(Cl)nc43)[C@@H](F)[C@@H]2O1 (some centres unmarked) [Compound 11]	1 to 10 µM
3) Nc1ccn([C@@H]2O[C@H](COP(=O)(NCc3ccccc3)OCc3ccc([N+](=O)[O-])o3)[C@@H](O)[C@@H]2O)c(=O)n1 (single isomer, unassigned) [25 (diastereoisomer 2)]	10 to 25 µM
4) Cn1c(COP(=O)(OCc2cnc([N+](=O)[O-])s2)OC[C@H]2O[C@@H](n3ccc(N)nc3=O)[C@@H](O)[C@@H]2O)cnc1[N+](=O)[O-] (some centres unmarked) [Compound 24c]	10 to 25 µM
5) C[C@H](NP(=O)(OCc1ccc([N+](=O)[O-])s1)OC[C@H]1O[C@@H](n2ccc(N)nc2=O)[C@@H](O)[C@@H]1O)C(=O)OCc1ccccc1 (single isomer, unassigned) [24f (diastereoisomer 2)]	10 to 25 µM
6) CCOC(=O)[C@H](C)NP1(=O)OC[C@H]2O[C@@H](n3cnc4c(N)nc(Cl)nc43)[C@@H](F)[C@@H]2O1 (some centres unmarked) [Compound 10]	25 to 100 µM
7) Nc1ccn([C@@H]2O[C@H](COP(=O)(OCc3ccc([N+](=O)[O-])o3)OCc3ccc([N+](=O)[O-])o3)[C@@H](O)[C@@H]2O)c(=O)n1 [Compound 24e]	10 to 25 µM
8) Nc1ccn([C@@H]2O[C@H](COP(=O)(OCc3cnc([N+](=O)[O-])s3)OCc3cnc([N+](=O)[O-])s3)[C@@H](O)[C@@H]2O)c(=O)n1 [Compound 24b]	10 to 25 µM
